# procedure-details: DSC, bilayer to hexagonal phase transition of DiPoPE
# Assay type: physicochemical
# condition-label: heating scan rate 37°/h
observed-property: shift in TH of DiPoPE with mol fraction of peptide

INSERT INTO assay_data (substance, test_value) VALUES
  ('Ac-DWLKAFYDKVFEKFKEFF-NH2 [Peptide 5F]', 'linear increase in TH'),
  ('Ac-DWLKAFYDKVAEKLKEAF-NH2 [Peptide 2F]', 'linear increase in TH');

---

# procedure-details: Solubility in PBS
# Type: physicochemical
# condition-label: Solubility (mg/ml)
observed-property: solubility

What measured solubility goes with Ac-DWLKAFYDKFFEKFKEFF-NH2 [Peptide 6F] ? 30 to 100 µg/mL
